Below is a list of entries, each paired with its recorded Kd value.
Target: T1, human LRRC15 extracellular domain with C-terminal His tag (human, UniProt Q8TF66 22-538)
T1 construct: Recombinant, made in HEK293; the entry holds the extracellular domain and the His tag; SPR analyte; also called TPP-1545; hLRRC15 CT-His
T1 sequence: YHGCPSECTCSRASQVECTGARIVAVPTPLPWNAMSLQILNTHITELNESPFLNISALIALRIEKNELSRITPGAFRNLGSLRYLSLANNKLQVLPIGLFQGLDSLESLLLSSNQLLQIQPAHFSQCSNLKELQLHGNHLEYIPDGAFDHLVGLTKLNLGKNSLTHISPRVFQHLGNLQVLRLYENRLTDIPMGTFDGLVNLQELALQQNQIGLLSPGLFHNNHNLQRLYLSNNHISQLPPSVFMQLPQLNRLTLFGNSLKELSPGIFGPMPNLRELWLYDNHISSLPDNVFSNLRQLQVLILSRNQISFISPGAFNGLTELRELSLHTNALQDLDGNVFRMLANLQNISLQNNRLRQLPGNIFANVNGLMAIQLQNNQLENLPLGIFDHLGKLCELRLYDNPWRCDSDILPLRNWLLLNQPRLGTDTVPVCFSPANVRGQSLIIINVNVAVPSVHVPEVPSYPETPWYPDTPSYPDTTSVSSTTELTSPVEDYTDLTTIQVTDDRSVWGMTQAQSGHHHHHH
Assay: SPR (Example 6), overview table, repeats Table 9; head prints [M^-1]
measured_quantity: Kd (nM)

{"binder": "TPP-17419 (antibody, human IgG1, kappa, V domains shown, also called 438H-M307-H07-hIgG1Kappa) VH: EVQLVQSGAEVKKPGASVKVSCKASGYKFSSYWIEWVKQAPGQGLEWIGEILPGSDWTNYNEKFKDRATFTSDTSINTAYMELSRLRSDDTAVYYCARDRGNYRAWFQYWGQGTLVTVSS VL: DIQMTQSPSSLSASVGDRVTITCRISQSISSYLNWYQQKPGGAPKFLIYYASSLQSGVPSRFSGSGSGTDYTLTISSLQPEDFATYYCQQGLRLPWTFGGGTKVEIKR", "assay_value": 3.4}
{"binder": "TPP-17073 (antibody, human IgG1, kappa, V domains shown, also called 438H-M113-N15-hIgG1) VH: EVQLLESGGGLVQPGGSLRLSCAASGFTFSGYMMSWVRQAPGKGLEWVSGIYPSAGYTLYADSVKGRFTISRDNSKNTLYLQMNSLRAEDTAVYYCAREKAADLFGSYSEALDYWGQGTLVTVSS VL: DIQMTQSPDSLSASVGDRVTITCRASQDVGSWLAWYQQKPGKAPKLLIFAASYLESGIPSRFSGSGSGTDFTLTISSLQPEDFATYYCQQANGFPLTFGGGTKVEIKR", "assay_value": 0.21}
{"binder": "TPP-17078 (antibody, human IgG1, kappa, V domains shown, also called 438H-M308-H05-hIgGkappa) VH: EVQLVQSGAEVKKPGASVKVSCKASGYKFSSYWIEWVKQAPGQGLEWIGEILPGSDTTNYNEKFKDRATFTSDTSINTAYMELSRLRSDDTAVYYCARDRGNYRAWFGYWGQGTLVTVSS VL: DIQMTQSPSSLSASVGDRVTITCRASQSISSYLNWYQQKPGGAPKFLIYYASSLQSGVPSRFSGSGSGTDYTLTISSLQPEDFATYYCQQGFSLPWTFGGGTKVEIKR", "assay_value": 1.7}
{"binder": "TPP-17074 (antibody, human IgG1, kappa, V domains shown, also called 438H-M161-K22-hIgG1) VH: EVQLLESGGGLVQPGGSLRLSCAASGFTFSGYMMSWVRQAPGKGLEWVSGIYPSGGYALYADSVKGRFTISRDNSKNTLYLQMNSLRAEDTAVYYCAREKAADLFGSYSEALDYWGQGTLVTVSS VL: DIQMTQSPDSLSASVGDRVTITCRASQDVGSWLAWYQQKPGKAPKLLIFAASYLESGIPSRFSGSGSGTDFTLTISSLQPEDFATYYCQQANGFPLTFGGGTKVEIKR", "assay_value": 0.19}
{"binder": "TPP-17418 (antibody, human IgG1, kappa, V domains shown, also called 438H-M308-H05_B-hIgG1Kappa) VH: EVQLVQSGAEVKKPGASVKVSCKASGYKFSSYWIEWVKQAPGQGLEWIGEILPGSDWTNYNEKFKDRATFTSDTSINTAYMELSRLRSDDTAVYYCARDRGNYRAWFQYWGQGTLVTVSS VL: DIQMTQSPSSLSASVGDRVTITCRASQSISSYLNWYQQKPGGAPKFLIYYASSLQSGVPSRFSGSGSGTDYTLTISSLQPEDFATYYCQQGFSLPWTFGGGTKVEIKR", "assay_value": 1.1}
{"binder": "TPP-14392 (antibody, human IgG1, kappa, V domains shown, also called 13612-rec05-hIgG1Kappa) VH: EVQLLESGGGLVQPGGSLRLSCAASGFTFSGYMMSWVRQAPGKGLEWVSGIYPSPGYTYYADSVKGRFTISRDNSKNTLYLQMNSLRAEDTAVYYCAREKASDLSGSYSEALDYWGQGTLVTVSS VL: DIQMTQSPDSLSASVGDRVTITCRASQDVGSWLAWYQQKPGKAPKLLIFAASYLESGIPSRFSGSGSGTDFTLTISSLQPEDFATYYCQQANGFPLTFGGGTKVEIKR", "assay_value": 5.9}
{"binder": "TPP-12942 (antibody, human IgG1, kappa, V domains shown, Prior art humanized IgG1 kappa antibody, used as comparator; also called huM25; huM25-hIgG1Kappa) VH: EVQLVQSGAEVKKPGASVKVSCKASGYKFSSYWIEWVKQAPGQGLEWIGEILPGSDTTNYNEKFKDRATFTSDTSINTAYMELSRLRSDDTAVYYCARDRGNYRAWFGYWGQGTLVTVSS VL: DIQMTQSPSSLSASVGDRVTITCRASQDISNYLNWYQQKPGGAVKFLIYYTSRLHSGVPSRFSGSGSGTDYTLTISSLQPEDFATYFCQQGEALPWTFGGGTKVEIKR", "assay_value": 25}

Value source: patent US20240108766A1
